Give measured pIC50 (REN) for each item. Keep answers brief.
# Tested target: RORγ (UniProt P51449)
# Construct: hRORg-LBD|aa259-518|NP_005051.2; hRORgt|aa1-497|NP_001001523 (RORg, t isoform, 497aa); mRORg-LBD|aa264-516|NP_035411
# Sequence (P51449 1-518): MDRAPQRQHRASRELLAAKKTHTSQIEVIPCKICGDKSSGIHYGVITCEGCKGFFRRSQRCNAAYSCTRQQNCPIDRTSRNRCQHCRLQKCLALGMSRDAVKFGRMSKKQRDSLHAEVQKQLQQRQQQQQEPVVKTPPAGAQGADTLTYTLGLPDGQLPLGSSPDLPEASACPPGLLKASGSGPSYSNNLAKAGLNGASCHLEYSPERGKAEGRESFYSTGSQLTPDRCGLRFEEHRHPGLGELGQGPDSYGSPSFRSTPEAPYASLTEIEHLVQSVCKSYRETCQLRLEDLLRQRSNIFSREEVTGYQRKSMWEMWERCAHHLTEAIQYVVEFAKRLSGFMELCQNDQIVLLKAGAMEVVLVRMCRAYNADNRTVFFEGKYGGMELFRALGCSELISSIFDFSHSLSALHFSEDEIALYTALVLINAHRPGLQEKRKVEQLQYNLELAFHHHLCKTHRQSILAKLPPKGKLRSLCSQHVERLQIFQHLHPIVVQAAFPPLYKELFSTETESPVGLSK
# Type: cell-based
# Experimental parameters: renilla normalised (RENnorm) luciferase, 293T cells, 16 h
One number for each entry.

Examples with their reported pIC50 (REN) follow.
Compound	Reported measurement
Cn1c(C(=O)N[C@H]2C[C@H](C(=O)O)C2)cc(-c2cc(C(C)(C)C)nc(C(C)(C)C)n2)c1CC1CCCCC1	6.8
Cn1c(C(=O)NC2CCOCC2)cc(-c2ccc(S(=O)(=O)NC(C)(C)C)c(C(C)(C)C)c2)c1CC1CCCCC1	7.3
C[C@H](O)CNC(=O)c1nc(-c2cc(C(C)(C)C)c(O)c(C(C)(C)C)c2)n(CC2CCCCC2)n1	6.3
Cc1c(C(=O)NC2CCOCC2)cc(-c2ccc(S(=O)(=O)NC(C)(C)C)c(C(F)(F)F)c2)n1CC(C)(C)C	6.1
CC(C)(C)c1cc(-c2nc(C(N)=O)nn2CC2CCCCC2)cc(C(C)(C)C)c1O	6.0
CC(C)(C)c1cc(-n2nc(C(N)=O)c(Cl)c2CC2CCCCC2)cc(C(C)(C)C)c1	6.4
CC(=O)c1cc(-c2cc(C(C)(C)C)cc(C(C)(C)C)c2)n(CC2CCCCC2)c1C	6.0
Cc1c(C(=O)NC2CCOCC2)cc(-c2ccc(S(=O)(=O)NC(C)(C)C)c(C(F)(F)F)c2)n1CC1COC1	6.2

Hey, can you go through the list below and give me pIC50 (REN) for every item?
1. CC(C)(C)NS(=O)(=O)c1ccc(-c2cc(C(=O)N[C@H]3C[C@H](C(=O)O)C3)nn2CC2CCCCC2)cc1C(C)(C)C
2. COC(c1c(C)c(C(=O)N[C@H]2C[C@H](C(=O)O)C2)cn1-c1cc(C(C)(C)C)cc(C2(C)CC2)c1)C1CCCCC1 (stereo partly drawn)
3. CCNC(=O)c1cc(CC2CCCCC2)n(-c2cc(C(C)(C)C)cc(C(C)(C)C)c2)n1
4. CC(C)(C)NS(=O)(=O)c1ccc(-c2cc(C(=O)NCCC(C)(C)C(=O)O)nn2CC2CCCCC2)cc1C(F)(F)F
5. Cn1c(C(=O)NCCC(C)(C)C(=O)O)cc(-c2cc(C(C)(C)C)cc(C3(C)CC3)c2)c1CC1CCCCC1
6. CC(C)(C)NS(=O)(=O)c1ccc(-c2c(F)c(C(=O)NCCC(C)(C)C(=O)O)nn2CC2CCCCC2)cc1C(F)(F)F

[7.1, 6.6, 6.0, 6.3, 7.5, 6.8]

Values were extracted from patent US9458104B2.
